- EXPERIMENT NOTES: yeast display, Sf9 membrane polyspecificity reagent, FACS + sequencing; frameworks hold sequencing errors
REPORTED ENDPOINT: polyreactivity (PSR sort gate)

{"ORDERED RESIDUES": "QVQLVESGGGLVQAGGSLRLSCAASGSTFPQYAMGRYRQAPGKERELVAAISRSGGSTYYADSVKGRFTISRDNAKNTVYLQMNSLKPEDTAVYYCNVKSGFWFYPTMDYWGQGTQVTVSS", "OBSERVED MEASUREMENT": "high polyreactivity"}
{"ORDERED RESIDUES": "QVQLEESCGGLVQAGGSLRLSCAASGSTFTIYAMGWYRQAPGKERELVAVISSSGGSTYYADSVKGRFTISRDNAKNTVYLQMNSLKPEDTAVYYCAADTRYFGGYLTLYYWGQGTQVTVSS", "OBSERVED MEASUREMENT": "low polyreactivity"}
{"ORDERED RESIDUES": "QVQLVESGGGLVQAGGSLRLSCAASGSILYVYALAWYRQAPGKERALVAAIYSGASTYYADSVKGRFTISPDNAKNTVYFQMNSLIPEETAVYYCAAYVFFQTYFSYYVEGDYWGQGTQVTVSS", "OBSERVED MEASUREMENT": "low polyreactivity"}
{"ORDERED RESIDUES": "QVQLQESGGGLVQAGGSLRLSCAASGNIVDADIMGWYRQAPRKERELVASITDGGSTNYADSVKGRFTISRDNAKNTVYLQMNSLIPEDTAVYYCAAISYPDIPTYFDYDSEYFYWGQGTQVSVSS", "OBSERVED MEASUREMENT": "low polyreactivity"}
{"ORDERED RESIDUES": "QVQLVESVGGLVQAGGSLRLSCAASGFTFLWYAMGWYRQAPGKEWELVAAINSSGVRTYYADSVKGRFTISRDNAKNTVYLLMNSLKPEDTAVYYCAAYQKTYTEDEYWGQGTQVTVSS", "OBSERVED MEASUREMENT": "high polyreactivity"}
{"ORDERED RESIDUES": "QVQLVESGGRLVQAGGSLRLSCAASGIIFYVYAMGWYRQAPGKERELVAAISSSGGSTYYADSVKGRFTISRDNAKNTVYLQMNSLKPEDSAVYYCAAVSSGYDDWGQGTQVTVTS", "OBSERVED MEASUREMENT": "high polyreactivity"}
{"ORDERED RESIDUES": "QVLLVESGGGLVQAGGSLRLSCAASGFIFFKYAMGWYRQAPGKEREFVAAISKSGTSTYYADSVKGRFTISRDNAKNTVYLQLNILKPEDTAVYDCAARYGRGSAYPEYDYWGQGTQVTVSS", "OBSERVED MEASUREMENT": "high polyreactivity"}
{"ORDERED RESIDUES": "QVQLVESGGGLVQAGGSLRLSCADSGRTFKYYAMGWYRQAPGKARELVAAIRSTGGSKYYADSVKGRFTISRDNAKNTVYLQMNSLKPEDTAVYYCNARRYPRYVFSRYDYWGQGTQVTVSS", "OBSERVED MEASUREMENT": "high polyreactivity"}
{"ORDERED RESIDUES": "QVQIVESGGGLVQAGGSLRLSGAASGLIFKYYDMGWSRQAPGKERELVASISRSGGRTYYADSVMGRFTISRDNAMNTVYLQMNSLKPEDTAVYYCNADTWLYWDGDDYWGQGTQVTVSS", "OBSERVED MEASUREMENT": "high polyreactivity"}
{"ORDERED RESIDUES": "QVQLVESGGGLVQAGGSLRLSCAASGFIYEDYAMGWYRQAPGKERELVAAITWRGGRTYYADCVKGRYTISRDNAKNTVYLQMNSLKPEDTAVYYCRPLVYSYASRYGYWGQGTQVTVLS", "OBSERVED MEASUREMENT": "high polyreactivity"}
{"ORDERED RESIDUES": "QVQLVESGGGLVQAGGSLRLSCAPSGSIFVYYGMGWYRQAPRKERELVAAISSGGSTHYADSVKGRFTISRDNAKITVYLQMNSLKPEDTAVYYCAADRFFWLRSYPRYYYWGQGTQVTVSS", "OBSERVED MEASUREMENT": "low polyreactivity"}

----------
- EXPERIMENT NOTES: yeast display, Sf9 membrane polyspecificity reagent, FACS + sequencing; frameworks hold sequencing errors

{"ORDERED RESIDUES": "QVQLVESGGGLVQAGGSLRLSCAASGLIFVFYAMGWYRQAPGKERELVAAISRSGTSTYADSVKGRFTISRDNAKNTVYLQMNSLKPEDTAVYYCNAYRYYSPYGYWGQGTQVTVSS", "polyreactivity (PSR sort gate)": "low polyreactivity"}
{"ORDERED RESIDUES": "QVQLVESGGGLVQAGGSLRLSCAASGSIFTYNAMGWYRQAPGKERELVAAINTSGSTNYADSVKGRFTISRDNAKNTVYLQMNSLKPEDTAVYYCAAGIVVTGYAYWGQGTQVTVSA", "polyreactivity (PSR sort gate)": "low polyreactivity"}

----------
- EXPERIMENT NOTES: yeast display, Sf9 membrane polyspecificity reagent, FACS + sequencing; frameworks hold sequencing errors
REPORTED ENDPOINT: polyreactivity (PSR sort gate)

{"ORDERED RESIDUES": "QVQLVESGGGLVQAGGSIRLSCAASGRTFNYYAMGWYRQAPGKERELVAAIDSDGNTYYADSVKGRFTISRDNAKNTVYLQMNSLKPDDTAVYYCAADTHVNPNYDYWGQGTQVTVSS", "OBSERVED MEASUREMENT": "low polyreactivity"}
{"ORDERED RESIDUES": "QVQLVESGGGLVQAGGSLRLSCAASGATFTFYAMGWYRQAPGKERELVATINWSGGSTYYADSVKGRFTISRDNSKYTVYLQMNSMKPEDTAVFYCNAACPFKSVEYWGQGTQVTVSS", "OBSERVED MEASUREMENT": "low polyreactivity"}
{"ORDERED RESIDUES": "QVQLVESGGGLVQAGGSLRLSCAASGSTFRGNAMGWYRQAPGKERELVAGISGSGGRTYYADSVKGRFTISRDNAKNTVYLQMNSLKPEDTAVYYCAARSTVYEYFYYRGWWEYYYWGQGTQVTVSS", "OBSERVED MEASUREMENT": "low polyreactivity"}

----------
- EXPERIMENT NOTES: yeast display, Sf9 membrane polyspecificity reagent, FACS + sequencing; frameworks hold sequencing errors
REPORTED ENDPOINT: polyreactivity (PSR sort gate)

{"ORDERED RESIDUES": "QVQLVESGGGLVQAGGILRLSCAPSGRIISWNPIGLYRQAPGQERELVADITYSGGSTYYADSVKGRFTISRDNAKNTVYLQMNSLKPEDTAVYDCNADPRWYHFEYGYWGQGTQVTVSS", "OBSERVED MEASUREMENT": "high polyreactivity"}
{"ORDERED RESIDUES": "QVQHVESGGGLVQAGGSLRLSCAASGSIFSFNAMGWYRQAPGKERELVASISRNGGSTYYADSVKGRFTISRDNAKNTVYLQMNSLKPEDTAVYYCAVKVRNRRYGYWGQGTQVTVSS", "OBSERVED MEASUREMENT": "high polyreactivity"}

----------
- EXPERIMENT NOTES: yeast display, Sf9 membrane polyspecificity reagent, FACS + sequencing; frameworks hold sequencing errors

{"ORDERED RESIDUES": "QVQLVESGGGLVQAGGSLRLSCAASGRIFYVYAMGWYRQAPGKERELVPAITSSGGSTYYADSVKGRFTISRDTAKNTVYLQMNSLKPEDTAVYYCAARERAGYSRIRYNYWGQGTQVTVSS", "polyreactivity (PSR sort gate)": "high polyreactivity"}
{"ORDERED RESIDUES": "QVQLVESGGGLVQAGGSLRLSCAASGSTIRSNAMGWYRQAPGKERELVAAISRTGGRTYYADSVKGRFTISRDNAKNTVYLQMNSLKPEDTAVYYCARPDKRLEYSENYYWGQGTQVTVSS", "polyreactivity (PSR sort gate)": "high polyreactivity"}
{"ORDERED RESIDUES": "QVQLVESGGGLVQAGGSLRLSCAASGRIFGPYTMGWYRQAPGKERELVAAISWSGGSTYYADSVKGRFTISRDNAKNTVYLQMNSLKPEDTAVYYCNADHPFPQYEGGSWGQGTQVTVSS", "polyreactivity (PSR sort gate)": "low polyreactivity"}
{"ORDERED RESIDUES": "KDQLVESGGGLVQAGGSLRLSCAASGRTFSHYTMGWYIQAPGKERELVARITRRGGRTYYADSVKGRFTISRDDAKNTVFLQMISLKPEDSAVYFCANEPWGYTRYTTYDYWGQGTQVTVSS", "polyreactivity (PSR sort gate)": "high polyreactivity"}
{"ORDERED RESIDUES": "QVQLVESAGGLVQEGGSLRIRCAASGRIYQLYTMGGYRQAPGKERELDAAITTGTSTSYAYSVKGRFTISRDNAKNTVYLLMYSLKPVDTAFYFCNKGSVSYYSVFVPYESDYGGQGTQVTVSS", "polyreactivity (PSR sort gate)": "low polyreactivity"}
